- ASSAYED_TARGET: Muscle, skeletal receptor tyrosine-protein kinase (Homo sapiens)
- Sequence (whole entry): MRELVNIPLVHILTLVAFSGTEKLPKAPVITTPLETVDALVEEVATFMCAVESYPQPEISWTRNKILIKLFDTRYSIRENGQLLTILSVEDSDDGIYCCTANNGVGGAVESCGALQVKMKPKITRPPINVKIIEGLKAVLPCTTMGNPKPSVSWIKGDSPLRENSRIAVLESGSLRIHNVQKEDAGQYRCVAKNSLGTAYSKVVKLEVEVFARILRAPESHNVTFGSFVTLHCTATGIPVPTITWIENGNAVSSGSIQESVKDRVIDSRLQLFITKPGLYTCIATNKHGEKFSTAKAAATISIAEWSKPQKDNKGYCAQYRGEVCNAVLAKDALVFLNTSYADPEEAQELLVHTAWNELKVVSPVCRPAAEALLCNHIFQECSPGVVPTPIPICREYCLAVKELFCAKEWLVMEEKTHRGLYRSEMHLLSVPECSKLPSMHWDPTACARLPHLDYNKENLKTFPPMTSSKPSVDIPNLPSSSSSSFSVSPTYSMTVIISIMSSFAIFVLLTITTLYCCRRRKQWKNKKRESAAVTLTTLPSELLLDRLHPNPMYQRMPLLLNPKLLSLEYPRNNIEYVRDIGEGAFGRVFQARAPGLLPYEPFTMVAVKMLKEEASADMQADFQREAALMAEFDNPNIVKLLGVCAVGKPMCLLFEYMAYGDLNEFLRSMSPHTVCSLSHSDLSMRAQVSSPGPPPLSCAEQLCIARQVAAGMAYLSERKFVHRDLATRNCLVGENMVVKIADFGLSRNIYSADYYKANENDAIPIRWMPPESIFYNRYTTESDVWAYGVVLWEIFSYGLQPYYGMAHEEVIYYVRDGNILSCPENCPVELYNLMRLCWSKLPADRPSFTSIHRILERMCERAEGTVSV
- CONDITION: at 10 µM
Listing of entries alongside the reported residual activity.
State the answer as a number, implicitly in %.

INSERT INTO assay_data (structure, attribute_measured, units_of_measure, observed_value) VALUES
  ('O=C(Nc1cccc(Nc2nccc(Nc3cccc(C(F)(F)F)c3)n2)c1)C1CC1', 'residual activity', '%', 3);

Input: Name the recorded residual activity of the molecule listed here: COc1ccc(S(=O)(=O)N(CCO)c2ccccc2CN(C)C/C=C/c2ccc(Cl)cc2)cc1
Output: 79

Input: Name the recorded residual activity of the molecule listed here: Cc1cccc(-c2[nH]c(C(C)(C)C)nc2-c2ccc3c(c2)OCO3)n1
Output: 87

Input: Name the recorded residual activity of the molecule listed here: N#C/C(=C(\N)Sc1ccc(N)cc1)c1ccccc1C(F)(F)F
Output: 84

Input: Name the recorded residual activity of the molecule listed here: Nc1n[nH]c2nnc(-c3c(-c4ccccc4)nn4ccccc34)cc12
Output: 86

Input: Name the recorded residual activity of the molecule listed here: O=C1NC(=O)c2cc(Nc3ccc(F)cc3)c(Nc3ccc(F)cc3)cc21
Output: 3

Input: Name the recorded residual activity of the molecule listed here: N#CCCc1ccc2c(c1)-c1[nH]c3ccc([N+](=O)[O-])cc3c1CC(=O)N2
Output: 32

Input: Name the recorded residual activity of the molecule listed here: O=C(Nc1cccc(Nc2cc(Nc3cccc(C(F)(F)F)c3)ncn2)c1)C1CC1
Output: 48

Input: Name the recorded residual activity of the molecule listed here: O=C1Nc2cc(Br)ccc2/C1=C1/Nc2ccccc2/C1=N\O
Output: 84

Input: Name the recorded residual activity of the molecule listed here: CC(C)n1cnc2c(NCc3ccccc3)nc(NCCCO)nc21
Output: 86
